All figures here come from ChEMBL document CHEMBL5724914.

details: human gut metagenome, 24 h, 2 µM; also: call rule not given here
Observable: Bacterial Biotransformation

// below: answered compounds
compound=Cc1ccc(/C(=C\CN2CCCC2)c2ccccn2)cc1 observable="Bacterial Biotransformation" experimental_result="Compound NOT metabolized"
compound="Cc1ccc(S(=O)(=O)NC(=O)NN2CCCCCC2)cc1 [TOLAZAMIDE]" observable="Bacterial Biotransformation" experimental_result="Compound metabolized"
compound="CC(C)N(CCC(C(N)=O)(c1ccccc1)c1ccccn1)C(C)C.O=P(O)(O)O (stereo not drawn) [DISOPYRAMIDE PHOSPHATE]" observable="Bacterial Biotransformation" experimental_result="Compound NOT metabolized"
compound=O=c1[nH]c2ccccc2n1CCCN1CCC(n2c(=O)[nH]c3cc(Cl)ccc32)CC1 observable="Bacterial Biotransformation" experimental_result="Compound NOT metabolized"
compound="COCCc1ccc(OCC(O)CNC(C)C)cc1.COCCc1ccc(OCC(O)CNC(C)C)cc1.O=C(O)C(O)C(O)C(=O)O (stereo not drawn) [METOPROLOL TARTRATE]" observable="Bacterial Biotransformation" experimental_result="Compound NOT metabolized"
compound="CCN1CCCC1CNC(=O)c1cc(S(N)(=O)=O)ccc1OC (stereo not drawn) [SULPIRIDE]" observable="Bacterial Biotransformation" experimental_result="Compound metabolized"
compound=CCCCC1=NC2(CCCC2)C(=O)N1Cc1ccc(-c2ccccc2-c2nnn[nH]2)cc1 observable="Bacterial Biotransformation" experimental_result="Compound metabolized"
compound=CN1CC(=O)N2[C@H](c3ccc4c(c3)OCO4)c3[nH]c4ccccc4c3C[C@@H]2C1=O observable="Bacterial Biotransformation" experimental_result="Compound metabolized"
compound="CC(=O)OCC(=O)[C@@]1(O)[C@@H](C)C[C@H]2[C@@H]3CCC4=CC(=O)C=C[C@]4(C)[C@@]3(F)[C@@H](O)C[C@@]21C [BETAMETHASONE ACETATE]" observable="Bacterial Biotransformation" experimental_result="Compound metabolized"
compound=COC(=O)[C@H]1[C@H]2C[C@@H]3c4[nH]c5cc(OC)ccc5c4CCN3C[C@H]2C[C@@H](OC(=O)c2cc(OC)c(OC)c(OC)c2)[C@@H]1OC observable="Bacterial Biotransformation" experimental_result="Compound metabolized"

Note: attention shifts to another entry.
Query (compound): "O=c1n(CCCN2CCN(c3cccc(Cl)c3)CC2)nc2ccccn12" ; field requested: Bacterial Biotransformation
Compound metabolized
